Values from the NIST ThermoML archive (doi:10.1016/j.jct.2013.05.031)

- Experimental setup: 353 K, Capillary rise
Numbers after ± are expanded uncertainties.
Measured property: surface tension liquid-gas

• CCCCCCCC[N+](CC)(CC)CC.O=S(=O)([N-]S(=O)(=O)C(F)(F)F)C(F)(F)F [triethyloctylammonium bis[(trifluoromethyl)sulfonyl]imide] = 28.6 ± 0.5 mN/m
• CCCCC[N+](CC)(CC)CC.O=S(=O)([N-]S(=O)(=O)C(F)(F)F)C(F)(F)F [triethylpentylammonium bis(trifluoromethylsulfonyl)imide] = 31.8 ± 0.5 mN/m
• CCCCCCCCCCCC[N+](CC)(CC)CC.O=S(=O)([N-]S(=O)(=O)C(F)(F)F)C(F)(F)F = 26.8 ± 0.5 mN/m
• CCCCCC[N+](CC)(CC)CC.O=S(=O)([N-]S(=O)(=O)C(F)(F)F)C(F)(F)F [triethylhexylammonium bis((trifluoromethyl)sulfonyl)imide] = 29.7 ± 0.5 mN/m

====

- Experimental setup: 358 K; 101.33 kPa; Liquid; Capillary tube (Ostwald / Ubbelohde) method
Form field: viscosity (one value per entry).
Measured property: viscosity (mPa·s)

* CCCCCC[N+](CC)(CC)CC.O=S(=O)([N-]S(=O)(=O)C(F)(F)F)C(F)(F)F [triethylhexylammonium bis((trifluoromethyl)sulfonyl)imide] | 15.83
* CCCCCCCCCCCC[N+](CC)(CC)CC.O=S(=O)([N-]S(=O)(=O)C(F)(F)F)C(F)(F)F | 21.3
* CCCCC[N+](CC)(CC)CC.O=S(=O)([N-]S(=O)(=O)C(F)(F)F)C(F)(F)F [triethylpentylammonium bis(trifluoromethylsulfonyl)imide] | 14.79
* CCCCCCCC[N+](CC)(CC)CC.O=S(=O)([N-]S(=O)(=O)C(F)(F)F)C(F)(F)F [triethyloctylammonium bis[(trifluoromethyl)sulfonyl]imide] | 17.83

====

- Experimental setup: 363 K; 101.33 kPa; Liquid; Capillary tube (Ostwald / Ubbelohde) method
Measured property: viscosity (mPa·s)

- CCCCC[N+](CC)(CC)CC.O=S(=O)([N-]S(=O)(=O)C(F)(F)F)C(F)(F)F [triethylpentylammonium bis(trifluoromethylsulfonyl)imide]: 12.87
- CCCCCCCCCCCC[N+](CC)(CC)CC.O=S(=O)([N-]S(=O)(=O)C(F)(F)F)C(F)(F)F: 18.31
- CCCCCC[N+](CC)(CC)CC.O=S(=O)([N-]S(=O)(=O)C(F)(F)F)C(F)(F)F [triethylhexylammonium bis((trifluoromethyl)sulfonyl)imide]: 13.9
- CCCCCCCC[N+](CC)(CC)CC.O=S(=O)([N-]S(=O)(=O)C(F)(F)F)C(F)(F)F [triethyloctylammonium bis[(trifluoromethyl)sulfonyl]imide]: 15.55

====

Form field: surface tension liquid-gas (one value per entry).
- Experimental setup: 338 K, Capillary rise
Measured property: surface tension liquid-gas (mN/m)

* CCCCCC[N+](CC)(CC)CC.O=S(=O)([N-]S(=O)(=O)C(F)(F)F)C(F)(F)F [triethylhexylammonium bis((trifluoromethyl)sulfonyl)imide] | 30.9
* CCCCCCCC[N+](CC)(CC)CC.O=S(=O)([N-]S(=O)(=O)C(F)(F)F)C(F)(F)F [triethyloctylammonium bis[(trifluoromethyl)sulfonyl]imide] | 29.7
* CCCCCCCCCCCC[N+](CC)(CC)CC.O=S(=O)([N-]S(=O)(=O)C(F)(F)F)C(F)(F)F | 28.2
* CCCCC[N+](CC)(CC)CC.O=S(=O)([N-]S(=O)(=O)C(F)(F)F)C(F)(F)F [triethylpentylammonium bis(trifluoromethylsulfonyl)imide] | 32.9

====

- Experimental setup: 333 K, Capillary rise
Form field: surface tension liquid-gas (one value per entry).
Measured property: surface tension liquid-gas (mN/m)

• CCCCCC[N+](CC)(CC)CC.O=S(=O)([N-]S(=O)(=O)C(F)(F)F)C(F)(F)F [triethylhexylammonium bis((trifluoromethyl)sulfonyl)imide] = 31.3
• CCCCC[N+](CC)(CC)CC.O=S(=O)([N-]S(=O)(=O)C(F)(F)F)C(F)(F)F [triethylpentylammonium bis(trifluoromethylsulfonyl)imide] = 33.3
• CCCCCCCCCCCC[N+](CC)(CC)CC.O=S(=O)([N-]S(=O)(=O)C(F)(F)F)C(F)(F)F = 28.5
• CCCCCCCC[N+](CC)(CC)CC.O=S(=O)([N-]S(=O)(=O)C(F)(F)F)C(F)(F)F [triethyloctylammonium bis[(trifluoromethyl)sulfonyl]imide] = 30.1

====

- Experimental setup: 298 K, Capillary rise
Measured property: surface tension liquid-gas (mN/m)

• CCCCCC[N+](CC)(CC)CC.O=S(=O)([N-]S(=O)(=O)C(F)(F)F)C(F)(F)F [triethylhexylammonium bis((trifluoromethyl)sulfonyl)imide] = 34.1
• CCCCCCCCCCCC[N+](CC)(CC)CC.O=S(=O)([N-]S(=O)(=O)C(F)(F)F)C(F)(F)F = 31.8
• CCCCC[N+](CC)(CC)CC.O=S(=O)([N-]S(=O)(=O)C(F)(F)F)C(F)(F)F [triethylpentylammonium bis(trifluoromethylsulfonyl)imide] = 35.7
• CCCCCCCC[N+](CC)(CC)CC.O=S(=O)([N-]S(=O)(=O)C(F)(F)F)C(F)(F)F [triethyloctylammonium bis[(trifluoromethyl)sulfonyl]imide] = 33.1

====

- Experimental setup: 308 K; 101.33 kPa; Liquid; Capillary tube (Ostwald / Ubbelohde) method
Form field: viscosity (one value per entry).
Measured property: viscosity (mPa·s)

* CCCCCC[N+](CC)(CC)CC.O=S(=O)([N-]S(=O)(=O)C(F)(F)F)C(F)(F)F [triethylhexylammonium bis((trifluoromethyl)sulfonyl)imide] | 105.1
* CCCCC[N+](CC)(CC)CC.O=S(=O)([N-]S(=O)(=O)C(F)(F)F)C(F)(F)F [triethylpentylammonium bis(trifluoromethylsulfonyl)imide] | 92.11
* CCCCCCCCCCCC[N+](CC)(CC)CC.O=S(=O)([N-]S(=O)(=O)C(F)(F)F)C(F)(F)F | 167.7
* CCCCCCCC[N+](CC)(CC)CC.O=S(=O)([N-]S(=O)(=O)C(F)(F)F)C(F)(F)F [triethyloctylammonium bis[(trifluoromethyl)sulfonyl]imide] | 124.7

====

Form field: viscosity (one value per entry).
- Experimental setup: 343 K; 101.33 kPa; Liquid; Capillary tube (Ostwald / Ubbelohde) method
Numbers after ± are expanded uncertainties.
Measured property: viscosity

- CCCCCCCCCCCC[N+](CC)(CC)CC.O=S(=O)([N-]S(=O)(=O)C(F)(F)F)C(F)(F)F: 34.69 ± 1.9 mPa·s
- CCCCC[N+](CC)(CC)CC.O=S(=O)([N-]S(=O)(=O)C(F)(F)F)C(F)(F)F [triethylpentylammonium bis(trifluoromethylsulfonyl)imide]: 22.47 ± 1.2 mPa·s
- CCCCCC[N+](CC)(CC)CC.O=S(=O)([N-]S(=O)(=O)C(F)(F)F)C(F)(F)F [triethylhexylammonium bis((trifluoromethyl)sulfonyl)imide]: 24.77 ± 1.3 mPa·s
- CCCCCCCC[N+](CC)(CC)CC.O=S(=O)([N-]S(=O)(=O)C(F)(F)F)C(F)(F)F [triethyloctylammonium bis[(trifluoromethyl)sulfonyl]imide]: 28.23 ± 1.5 mPa·s

====

Form field: viscosity (one value per entry).
- Experimental setup: 353 K; 101.33 kPa; Liquid; Capillary tube (Ostwald / Ubbelohde) method
± gives the expanded uncertainty stated by the source.
Measured property: viscosity

- CCCCCCCCCCCC[N+](CC)(CC)CC.O=S(=O)([N-]S(=O)(=O)C(F)(F)F)C(F)(F)F: 25.13 ± 1.3 mPa·s
- CCCCC[N+](CC)(CC)CC.O=S(=O)([N-]S(=O)(=O)C(F)(F)F)C(F)(F)F [triethylpentylammonium bis(trifluoromethylsulfonyl)imide]: 16.71 ± 0.82 mPa·s
- CCCCCC[N+](CC)(CC)CC.O=S(=O)([N-]S(=O)(=O)C(F)(F)F)C(F)(F)F [triethylhexylammonium bis((trifluoromethyl)sulfonyl)imide]: 18.03 ± 0.91 mPa·s
- CCCCCCCC[N+](CC)(CC)CC.O=S(=O)([N-]S(=O)(=O)C(F)(F)F)C(F)(F)F [triethyloctylammonium bis[(trifluoromethyl)sulfonyl]imide]: 20.36 ± 1 mPa·s

====

- Experimental setup: 303 K; 101.33 kPa; Liquid; Capillary tube (Ostwald / Ubbelohde) method
Measured property: viscosity (mPa·s)

• CCCCC[N+](CC)(CC)CC.O=S(=O)([N-]S(=O)(=O)C(F)(F)F)C(F)(F)F [triethylpentylammonium bis(trifluoromethylsulfonyl)imide] = 121.4
• CCCCCCCCCCCC[N+](CC)(CC)CC.O=S(=O)([N-]S(=O)(=O)C(F)(F)F)C(F)(F)F = 227.6
• CCCCCC[N+](CC)(CC)CC.O=S(=O)([N-]S(=O)(=O)C(F)(F)F)C(F)(F)F [triethylhexylammonium bis((trifluoromethyl)sulfonyl)imide] = 137.9
• CCCCCCCC[N+](CC)(CC)CC.O=S(=O)([N-]S(=O)(=O)C(F)(F)F)C(F)(F)F [triethyloctylammonium bis[(trifluoromethyl)sulfonyl]imide] = 163.9

====

- Experimental setup: 303 K, Capillary rise
Form field: surface tension liquid-gas (one value per entry).
Measured property: surface tension liquid-gas (mN/m)

- CCCCCCCC[N+](CC)(CC)CC.O=S(=O)([N-]S(=O)(=O)C(F)(F)F)C(F)(F)F [triethyloctylammonium bis[(trifluoromethyl)sulfonyl]imide]: 32.8
- CCCCCCCCCCCC[N+](CC)(CC)CC.O=S(=O)([N-]S(=O)(=O)C(F)(F)F)C(F)(F)F: 31.3
- CCCCCC[N+](CC)(CC)CC.O=S(=O)([N-]S(=O)(=O)C(F)(F)F)C(F)(F)F [triethylhexylammonium bis((trifluoromethyl)sulfonyl)imide]: 33.7
- CCCCC[N+](CC)(CC)CC.O=S(=O)([N-]S(=O)(=O)C(F)(F)F)C(F)(F)F [triethylpentylammonium bis(trifluoromethylsulfonyl)imide]: 35.4
